Molecular target: 11-beta-hydroxysteroid dehydrogenase 1 (Homo sapiens)
Sequence (P28845 whole entry): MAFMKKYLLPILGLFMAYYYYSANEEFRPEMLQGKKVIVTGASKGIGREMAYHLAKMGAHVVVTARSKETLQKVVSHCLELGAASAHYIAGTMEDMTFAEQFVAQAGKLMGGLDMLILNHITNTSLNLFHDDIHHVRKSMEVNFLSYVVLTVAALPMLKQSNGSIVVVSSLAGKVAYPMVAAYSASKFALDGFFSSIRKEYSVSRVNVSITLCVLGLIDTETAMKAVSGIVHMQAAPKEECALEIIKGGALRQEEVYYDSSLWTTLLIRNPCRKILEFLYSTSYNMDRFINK
Assay: Inhibition of human 11beta-HSD1
test readout: IC50

[[record]]
compound = "C[C@@H]1CC(n2c(=O)[nH]c3ccccc32)C[C@@H](C)N1C(=O)c1cc(Cl)c(N)c(Cl)c1 (stereo partly specified)"
experimental_result = "22 nM"


----------
Target: 11-beta-hydroxysteroid dehydrogenase 1 (Mus musculus) (UniProt P50172)
Sequence (P50172 whole entry, looked up): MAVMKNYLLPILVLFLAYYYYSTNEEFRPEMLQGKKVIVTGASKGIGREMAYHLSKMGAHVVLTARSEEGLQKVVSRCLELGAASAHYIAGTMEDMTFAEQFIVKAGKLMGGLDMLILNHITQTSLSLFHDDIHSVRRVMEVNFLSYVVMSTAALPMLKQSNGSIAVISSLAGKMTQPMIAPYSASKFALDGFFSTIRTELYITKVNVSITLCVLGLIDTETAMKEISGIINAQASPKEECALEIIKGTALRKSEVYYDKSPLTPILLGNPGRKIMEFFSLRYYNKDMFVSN
Assay: Inhibition of mouse 11beta-HSD1 expressed in HEK293 cell microsomes assessed as inhibition of [3H]cortisone conversion to [3H]cortisol at 1 uM by scintillation proximity assay
Settings: Microsome
test readout: inhibition (%)

[[record]]
smiles = "C=C1[C@H]2C[C@H](O)[C@H]3[C@]4(C)CCC[C@@](C)(NC(=O)N5CCNCC5)[C@H]4CC[C@]3(C2)[C@@H]1O"
experimental_result = 12.7

[[record]]
smiles = "C=C1C[C@@]23CC[C@H]4[C@@](C)(CCC[C@@]4(C)NC(=O)Nc4ccc(F)cc4)[C@@H]2CC[C@H]1C3"
experimental_result = 25.9

[[record]]
smiles = "C=C1[C@H]2C[C@H](O)[C@H]3[C@]4(C)CCC[C@@](C)(NC(=O)NC(C)(C)C)[C@H]4CC[C@]3(C2)[C@@H]1O"
experimental_result = 11.3

[[record]]
smiles = "C=C1[C@H]2C[C@H](O)[C@H]3[C@]4(C)CCC[C@@](C)(NC(=O)Nc5cccc6ccccc56)[C@H]4CC[C@]3(C2)[C@@H]1O"
experimental_result = 52.2

[[record]]
smiles = "C=C1[C@H]2C[C@H](O)[C@H]3[C@]4(C)CCC[C@@](C)(NC(=O)Nc5ccccc5)[C@H]4CC[C@]3(C2)[C@@H]1O"
experimental_result = 24.4

[[record]]
smiles = "C=C1[C@H]2C[C@H](O)[C@H]3[C@]4(C)CCC[C@@](C)(NC(=O)N(C)OC)[C@H]4CC[C@]3(C2)[C@@H]1O"
experimental_result = 16.1

[[record]]
smiles = "C=C1[C@H]2C[C@H](O)[C@H]3[C@]4(C)CCC[C@@](C)(NC(=O)Nc5ccc(C(F)(F)F)cc5)[C@H]4CC[C@]3(C2)[C@@H]1O"
experimental_result = 3.69

[[record]]
smiles = "C=C1[C@H]2C[C@H](O)[C@H]3[C@]4(C)CCC[C@@](C)(NC(=O)N5CCCC5)[C@H]4CC[C@]3(C2)[C@@H]1O"
experimental_result = 9.21

[[record]]
smiles = "C=C1[C@H]2C[C@H](OC(=O)N3CCOCC3)[C@H]3[C@]4(C)CCC[C@@](C)(C(=O)O)[C@H]4CC[C@]3(C2)[C@@H]1O"
experimental_result = 35.2

[[record]]
smiles = "C=C1[C@H]2C[C@H](OC(C)=O)[C@H]3[C@]4(C)CCC[C@@](C)(C(=O)O)[C@H]4CC[C@]3(C2)[C@@H]1O"
experimental_result = 12.4

[[record]]
smiles = "C=C1[C@H]2C[C@H](O)[C@H]3[C@]4(C)CCC[C@@](C)(C(=O)O)[C@H]4CC[C@]3(C2)[C@@H]1O"
experimental_result = 16.5

[[record]]
smiles = "C=C1[C@H]2C[C@H](OC(=O)c3ccccc3)[C@H]3[C@]4(C)CCC[C@@](C)(C(=O)O)[C@H]4CC[C@]3(C2)[C@@H]1O"
experimental_result = 21.3

[[record]]
smiles = "C=C1[C@H]2C[C@H](O)[C@H]3[C@]4(C)CCC[C@@](C)(CO)[C@H]4CC[C@]3(C2)[C@@H]1O"
experimental_result = 27.3

[[record]]
smiles = "C=C1[C@H]2C[C@H](OC(=S)SC)[C@H]3[C@]4(C)CCC[C@@](C)(C(=O)O)[C@H]4CC[C@]3(C2)[C@@H]1O"
experimental_result = 11.1


----------
Here, each record is paired with measured Ratio IC50 data.
Organism: Homo sapiens
Experiment: selectivity ratio of IC50 for human 11beta-HSD2 to IC50 for human 11beta-HSD1
test readout: Ratio IC50

[[record]]
smiles = "C=C1[C@H]2C[C@H](OC(=S)SC)[C@H]3[C@]4(C)CCC[C@@](C)(C(=O)O)[C@H]4CC[C@]3(C2)[C@@H]1O"
experimental_result = "> 130"

[[record]]
smiles = "C[C@@]1(CO)CCC[C@]2(C)[C@@H]1CC[C@@]13C[C@H](CC[C@H]12)[C@@](O)(CO)C3"
experimental_result = "> 1100"

[[record]]
smiles = "C[C@@]12CCC[C@@](C)(C(=O)O)[C@H]1CC[C@@]13C[C@H](CC[C@H]12)[C@@](O)(CO)C3"
experimental_result = "> 809"


----------
Species on record: Mus musculus
Test: Selectivity ratio of IC50 for mouse 11beta-HSD2 to IC50 for mouse 11beta-HSD1
Here, each record is paired with measured Ratio IC50 data.
test readout: Ratio IC50

[[record]]
smiles = "C=C1[C@H]2CC[C@H]3[C@]4(C)CCC[C@@](C)(C(=O)O)[C@H]4CC[C@]3(C2)[C@H]1O"
experimental_result = "> 387"

[[record]]
smiles = "C[C@@]1(CO)CCC[C@]2(C)[C@@H]1CC[C@@]13C[C@H](CC[C@H]12)[C@@](O)(CO)C3"
experimental_result = "> 357"

[[record]]
smiles = "C[C@@]12CCC[C@@](C)(C(=O)O)[C@H]1CC[C@@]13C[C@H](CC[C@H]12)[C@@](O)(CO)C3"
experimental_result = "> 311"

[[record]]
smiles = "C=C1C[C@@]23CC[C@@H]4[C@](C)(CO)CCC[C@@]4(C)[C@@H]2CC[C@H]1C3"
experimental_result = "> 640"

[[record]]
smiles = "C=C1C[C@@]23CC[C@H]4[C@@](C)(CCC[C@@]4(C)C(=O)O)[C@@H]2CC[C@@H]1C3"
experimental_result = 1400


----------
Target: 11-beta-hydroxysteroid dehydrogenase 1 (Rattus norvegicus)
Sequence (P16232 whole entry): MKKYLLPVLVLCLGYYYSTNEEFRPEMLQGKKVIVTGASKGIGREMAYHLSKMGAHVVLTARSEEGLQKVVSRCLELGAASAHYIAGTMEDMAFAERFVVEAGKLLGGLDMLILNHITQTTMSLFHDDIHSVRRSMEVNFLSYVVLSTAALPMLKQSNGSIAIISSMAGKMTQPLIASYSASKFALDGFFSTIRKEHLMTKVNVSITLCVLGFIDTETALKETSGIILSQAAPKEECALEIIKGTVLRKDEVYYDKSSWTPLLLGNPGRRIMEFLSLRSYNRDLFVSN
pIC50: −log10 of the molar value.
test readout: pIC50

[[record]]
compound = "C[C@@H]1CC(n2c(=O)[nH]c3ccccc32)C[C@@H](C)N1C(=O)c1cc(Cl)c(N)c(Cl)c1 (stereo partly specified)"
experimental_result = 7.41


----------
Here, each record is paired with measured IC50 data.
Molecular target: 11-beta-hydroxysteroid dehydrogenase type 2 (Mus musculus)
Sequence (P51661 whole entry): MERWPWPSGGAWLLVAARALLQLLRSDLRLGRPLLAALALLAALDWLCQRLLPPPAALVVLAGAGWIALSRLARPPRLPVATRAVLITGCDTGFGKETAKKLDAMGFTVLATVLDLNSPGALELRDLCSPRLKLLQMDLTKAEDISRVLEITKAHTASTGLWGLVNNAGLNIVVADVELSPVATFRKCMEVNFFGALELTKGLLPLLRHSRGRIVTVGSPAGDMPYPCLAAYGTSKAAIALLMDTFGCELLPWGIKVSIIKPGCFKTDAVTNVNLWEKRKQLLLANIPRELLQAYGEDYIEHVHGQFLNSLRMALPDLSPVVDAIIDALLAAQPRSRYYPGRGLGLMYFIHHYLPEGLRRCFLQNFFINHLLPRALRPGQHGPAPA
test readout: IC50

[[record]]
compound = "C[C@@]12CCC[C@@](C)(C(=O)O)[C@H]1CC[C@@]13C[C@H](CC[C@H]12)[C@@](O)(CO)C3"
test_readout = "IC50"
experimental_result = "> 1 mM"

[[record]]
compound = "C=C1C[C@@]23CC[C@@H]4[C@](C)(CO)CCC[C@@]4(C)[C@@H]2CC[C@H]1C3"
test_readout = "IC50"
experimental_result = "> 1 mM"

[[record]]
compound = "C=C1C[C@@]23CC[C@H]4[C@@](C)(CCC[C@@]4(C)C(=O)O)[C@@H]2CC[C@@H]1C3 [KAURENOIC ACID]"
test_readout = "IC50"
experimental_result = "0.5 mM"

[[record]]
compound = "C[C@@]1(CO)CCC[C@]2(C)[C@@H]1CC[C@@]13C[C@H](CC[C@H]12)[C@@](O)(CO)C3"
test_readout = "IC50"
experimental_result = "> 1 mM"


----------
Target: 11-beta-hydroxysteroid dehydrogenase type 2 (Homo sapiens)
Sequence (P80365 whole entry): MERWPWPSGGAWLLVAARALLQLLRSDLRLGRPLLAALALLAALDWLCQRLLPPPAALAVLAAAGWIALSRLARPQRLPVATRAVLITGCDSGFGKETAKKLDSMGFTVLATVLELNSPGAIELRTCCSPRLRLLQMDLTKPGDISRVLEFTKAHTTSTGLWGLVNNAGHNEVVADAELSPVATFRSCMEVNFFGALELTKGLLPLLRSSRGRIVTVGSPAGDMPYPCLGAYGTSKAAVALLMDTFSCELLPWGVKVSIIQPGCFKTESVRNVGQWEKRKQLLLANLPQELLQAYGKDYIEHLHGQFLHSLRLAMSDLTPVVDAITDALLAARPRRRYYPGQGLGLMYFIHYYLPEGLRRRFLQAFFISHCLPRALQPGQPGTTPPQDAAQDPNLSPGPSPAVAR
test readout: IC50

[[record]]
smiles = "C=C1C[C@@]23CC[C@H]4[C@@](C)(CCC[C@@]4(C)NC(=O)NC45CC6CC(CC(C6)C4)C5)[C@@H]2CC[C@H]1C3"
experimental_result = "> 100 µM"

[[record]]
smiles = "C=C1[C@H]2C[C@H](O)[C@H]3[C@]4(C)CCC[C@@](C)(NC(=O)Nc5ccccc5)[C@H]4CC[C@]3(C2)[C@@H]1O"
experimental_result = "> 1000 µM"

[[record]]
smiles = "C=C1[C@H]2C[C@H](OC(=S)SC)[C@H]3[C@]4(C)CCC[C@@](C)(C(=O)O)[C@H]4CC[C@]3(C2)[C@@H]1O"
experimental_result = "> 100 µM"

[[record]]
smiles = "C=C1[C@H]2C[C@H](O)[C@H]3[C@]4(C)CCC[C@@](C)(NC(=O)Nc5cccc6ccccc56)[C@H]4CC[C@]3(C2)[C@@H]1O"
experimental_result = "1.6 µM"

[[record]]
smiles = "C=C1C[C@@]23CC[C@H]4[C@@](C)(CCC[C@@]4(C)NC(=O)Nc4ccc(F)cc4)[C@@H]2CC[C@H]1C3"
experimental_result = "> 100 µM"

[[record]]
smiles = "C[C@@]1(CO)CCC[C@]2(C)[C@@H]1CC[C@@]13C[C@H](CC[C@H]12)[C@@](O)(CO)C3"
experimental_result = "> 1000 µM"

